# measured on: T1, His-tagged CEACAM1 (human, UniProt P13688 35-428)
# T1 construct: 45 kDa SPR analyte; also called CEACAM1-HIS; CEACAM1 analyte
# T1 sequence: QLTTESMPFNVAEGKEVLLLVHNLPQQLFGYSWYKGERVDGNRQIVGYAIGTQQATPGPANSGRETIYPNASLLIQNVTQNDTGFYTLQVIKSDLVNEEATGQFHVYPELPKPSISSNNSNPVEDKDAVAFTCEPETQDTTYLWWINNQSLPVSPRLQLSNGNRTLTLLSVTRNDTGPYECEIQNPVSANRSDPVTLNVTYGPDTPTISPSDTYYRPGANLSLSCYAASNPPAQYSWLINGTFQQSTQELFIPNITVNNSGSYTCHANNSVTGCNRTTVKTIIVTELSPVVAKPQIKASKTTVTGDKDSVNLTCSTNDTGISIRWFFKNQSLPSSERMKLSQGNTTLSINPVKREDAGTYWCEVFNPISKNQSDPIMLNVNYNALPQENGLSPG
# procedure summary: SPR single-cycle, supernatant IgG captured
value kind: relative KD to parent
Answers are plain numbers.

Answered examples (4):
INSERT INTO results (binder, observed_value) VALUES
  ('CP08H03/Vκ8 S29A (antibody, IgG4, V domains shown, IgG4 (S241P), kappa; also called CP08_H03/Parent VL; CP08_H03/Parental) VH: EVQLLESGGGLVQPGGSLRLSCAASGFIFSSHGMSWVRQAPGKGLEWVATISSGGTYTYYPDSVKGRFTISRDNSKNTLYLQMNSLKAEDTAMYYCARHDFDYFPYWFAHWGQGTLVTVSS VL: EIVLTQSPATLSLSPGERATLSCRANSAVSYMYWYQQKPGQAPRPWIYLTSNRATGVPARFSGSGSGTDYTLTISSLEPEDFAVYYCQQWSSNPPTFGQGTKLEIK', 4.2),
  ('CP09B03/CP08F05 (antibody, IgG4, V domains shown, IgG4 (S241P), kappa) VH: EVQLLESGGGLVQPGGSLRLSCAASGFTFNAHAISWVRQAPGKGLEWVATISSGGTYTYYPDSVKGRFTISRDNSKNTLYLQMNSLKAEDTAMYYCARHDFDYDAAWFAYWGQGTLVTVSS VL: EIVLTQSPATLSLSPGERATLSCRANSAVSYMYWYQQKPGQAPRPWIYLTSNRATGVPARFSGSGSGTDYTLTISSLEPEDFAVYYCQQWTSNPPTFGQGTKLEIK', 3.6),
  ('CP08H03/CP08E05 (antibody, IgG4, V domains shown, IgG4 (S241P), kappa) VH: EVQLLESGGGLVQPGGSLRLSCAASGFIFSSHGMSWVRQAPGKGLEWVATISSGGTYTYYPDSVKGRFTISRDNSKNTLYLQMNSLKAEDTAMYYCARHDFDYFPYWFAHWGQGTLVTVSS VL: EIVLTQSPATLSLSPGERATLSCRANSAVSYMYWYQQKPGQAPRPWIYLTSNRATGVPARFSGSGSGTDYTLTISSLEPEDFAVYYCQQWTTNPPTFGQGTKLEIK', 4.6),
  ('VH1/CP08G09 (antibody, IgG4, V domains shown, IgG4 (S241P), kappa; also called Parent VH/CP08G09) VH: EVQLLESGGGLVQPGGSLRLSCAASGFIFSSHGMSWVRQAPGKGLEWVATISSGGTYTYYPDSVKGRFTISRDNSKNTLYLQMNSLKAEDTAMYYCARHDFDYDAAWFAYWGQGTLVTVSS VL: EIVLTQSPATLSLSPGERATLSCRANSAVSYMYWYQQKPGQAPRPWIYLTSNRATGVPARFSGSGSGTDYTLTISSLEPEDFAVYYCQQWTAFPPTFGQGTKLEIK', 1.2);

Switching to the query record.
Any idea what its relative KD to parent is? The binder is CP09C02/CP08D02 (antibody, IgG4, V domains shown, IgG4 (S241P), kappa) VH: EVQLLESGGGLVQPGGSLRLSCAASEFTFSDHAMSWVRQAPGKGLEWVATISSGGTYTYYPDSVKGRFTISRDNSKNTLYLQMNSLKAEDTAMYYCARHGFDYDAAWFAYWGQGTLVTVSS VL: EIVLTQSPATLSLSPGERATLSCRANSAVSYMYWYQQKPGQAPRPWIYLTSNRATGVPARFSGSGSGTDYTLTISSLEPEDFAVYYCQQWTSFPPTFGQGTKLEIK
4
